I'd be grateful if you could share measured GI50 for these entries.
assay: Growth inhibition of human SF539 cells; type: functional; conditions: SF-539
Field note: include the unit after the figure.

- molecule: "COc1cc2c3c(n(C[C@H](O)[C@H](O)[C@H](O)CO)c(=O)c2cc1OC)-c1cc2c(cc1C3=O)OCO2"
  reported_measurement: "28 nM"
- molecule: "COc1cc2c3c(n(C[C@@H](O)CO)c(=O)c2cc1OC)-c1cc2c(cc1C3=O)OCO2"
  reported_measurement: "32 nM"
- molecule: "COc1cc2c3c(n(CC(O)CO)c(=O)c2cc1OC)-c1cc2c(cc1C3=O)OCO2 (racemic)"
  reported_measurement: "23 nM"
- molecule: "O=C1c2ccccc2-c2c1c1ccc([N+](=O)[O-])cc1c(=O)n2C[C@@H](O)CO"
  reported_measurement: "309 nM"
- molecule: "COc1cc2c3c(n(C[C@@H](O)[C@@H](O)[C@H](O)CO)c(=O)c2cc1OC)-c1cc2c(cc1C3=O)OCO2"
  reported_measurement: "214 nM"
- molecule: "COc1cc2c3c(n(C[C@H](O)CO)c(=O)c2cc1OC)-c1cc2c(cc1C3=O)OCO2"
  reported_measurement: "25 nM"

Please state, for each entry, its recorded GI50.
1. COc1cc2c3c(n(C[C@H](O)[C@@H](O)[C@H](O)CO)c(=O)c2cc1OC)-c1cc2c(cc1C3=O)OCO2
2. O=C1c2ccccc2-c2c1c1ccc([N+](=O)[O-])cc1c(=O)n2C[C@H](O)[C@@H](O)[C@H](O)CO

(A)
1. 21 nM
2. 214 nM
